Data credit: the supplement of paper PMC10567573

B1: NFE2L1 (parent)
chain: TLDGYGIHPKSIDLDNYFTARRLL

Variants of: B1
Assay: protein stability index of a GFP-peptide fusion (GPS, HEK-293T) (PSI 1-6); higher = more stable;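 also: lentivirally expressed fusions sorted by FACS into six bins by GFP to DsRed ratio, PSI derived from sequencing read proportions per bin multiplied by bin number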
Settings: c terminus: a fixed tail appended
attribute-measured: protein stability index
Reply briefly: the number, and no unit.

Worked cases, protein stability index given:
# variant-description, attribute-measured, quantitative-result
records = [
    ("I7T", "protein stability index", 1.78),
    ("P9A", "protein stability index", 1.68),
    ("Y17E", "protein stability index", 3.09),
]

Query (variant): D15C ; field requested: protein stability index 1.48

Let us now turn to K10W 2.24

And what about the variant N16W ? 1.96

Item: Y17I 2.25

Then D15F ? 2.6

Now the variant G4D 2.57

Input R21C 1.7
